FYI, the data here is from the supplement of paper PMC7394473.

Test system: U2OS
Experiment: normalized growth rate inhibition value (GR) relative to untreated cells (GR value (dimensionless, 1 = untreated growth)); higher = less growth inhibition
Settings: 3.16456 µM; 72 h
endpointLabel: normalized growth rate inhibition value

Field: example entries. Status: answers known.
{"molecule": "CCN1CCN(Cc2ccc(Nc3ncc(F)c(-c4cc(F)c5nc(C)n(C(C)C)c5c4)n3)nc2)CC1 [Abemaciclib]", "systemName": "U2OS", "endpointLabel": "normalized growth rate inhibition value", "measured": -0.2}
{"molecule": "O=C1NC(=O)[C@@H](c2cn3c4c(cccc24)CCC3)[C@@H]1c1c[nH]c2ccccc12 [Tivantinib]", "systemName": "U2OS", "endpointLabel": "normalized growth rate inhibition value", "measured": -0.107}
{"molecule": "Nc1cc(C(F)(F)F)c(-c2cc(N3CCOCC3)nc(N3CCOCC3)n2)cn1 [Buparlisib]", "systemName": "U2OS", "endpointLabel": "normalized growth rate inhibition value", "measured": -0.224}
{"molecule": "CC(C)[C@@H]1NC(=O)[C@H](C)OC(=O)[C@@H](C(C)C)NC(=O)[C@@H](C(C)C)OC(=O)[C@H](C(C)C)NC(=O)[C@H](C)OC(=O)[C@@H](C(C)C)NC(=O)[C@@H](C(C)C)OC(=O)[C@H](C(C)C)NC(=O)[C@H](C)OC(=O)[C@@H](C(C)C)NC(=O)[C@@H](C(C)C)OC1=O [Valinomycin]", "systemName": "U2OS", "endpointLabel": "normalized growth rate inhibition value", "measured": -0.0823}
{"molecule": "COc1cc2c(Oc3ccc4[nH]c(C)cc4c3F)ncnc2cc1OCCCN1CCCC1 [Cediranib]", "systemName": "U2OS", "endpointLabel": "normalized growth rate inhibition value", "measured": 0.837}

Noted for `CCc1cncnc1N1CCN(Cc2nc3ccc(C(F)(F)F)cc3[nH]2)CC1` : its normalized growth rate inhibition value reads 0.943

Noted for CN(C)CC[C@H](CSc1ccccc1)Nc1ccc(S(=O)(=O)NC(=O)c2ccc(N3CCN(Cc4ccccc4-c4ccc(Cl)cc4)CC3)cc2)cc1[N+](=O)[O-] [ABT-737] : its normalized growth rate inhibition value reads 0.358

----------
Test system: U2OS
Assay: normalized growth rate inhibition value (GR) relative to untreated cells (GR value (dimensionless, 1 = untreated growth)); higher = less growth inhibition
Conditions: 0.0316 µM; 72 h
endpointLabel: normalized growth rate inhibition value
Lab note: write the figure by itself, no unit.

Field: example entries. Status: answers known.
{"compound": "CC1(C)CCC(c2ccc(Cl)cc2)=C(CN2CCN(c3ccc(C(=O)NS(=O)(=O)c4ccc(N[C@H](CCN5CCOCC5)CSc5ccccc5)c(S(=O)(=O)C(F)(F)F)c4)cc3)CC2)C1", "normalized growth rate inhibition value": 1.04}
{"compound": "Nc1ccccc1NC(=O)c1ccc(CNC(=O)OCc2cccnc2)cc1", "normalized growth rate inhibition value": 0.969}
{"compound": "CC1CCc2cc(F)cc3c(=O)c(C(=O)O)cn1c23 (centres undefined)", "normalized growth rate inhibition value": 1.02}

Continue with the next compound.
Noted for `O=C(NCCCNc1nc(Nc2cccc(NC(=O)N3CCCC3)c2)ncc1I)c1cccs1` : its normalized growth rate inhibition value reads 1.11

----------
Tested on: U2OS
Experiment: normalized growth rate inhibition value (GR) relative to untreated cells (GR value (dimensionless, 1 = untreated growth)); higher = less growth inhibition
Conditions: 0.00100433 µM; 72 h
label 1 means recorded normalized growth rate inhibition value is 1 or above; label 0 means it is below 1.

Consider the worked cases shown below.
{"recordSmiles": "CCc1cnn2c(NCc3ccc[n+]([O-])c3)cc(N3CCCC[C@H]3CCO)nc12", "classAssignment": "label 0"}
{"recordSmiles": "CC(=O)Nc1cccc(-n2c(=O)n(C3CC3)c(=O)c3c(Nc4ccc(I)cc4F)n(C)c(=O)c(C)c32)c1", "classAssignment": "label 0"}
{"recordSmiles": "CCNC(=O)c1noc(-c2cc(C(C)C)c(O)cc2O)c1-c1ccc(CN2CCOCC2)cc1", "classAssignment": "label 0"}
{"recordSmiles": "CCOc1cc2ncc(C#N)c(Nc3ccc(OCc4ccccn4)c(Cl)c3)c2cc1NC(=O)/C=C/CN(C)C", "classAssignment": "label 0"}
{"recordSmiles": "CC(=O)O[C@H]1C(=O)[C@@]2(C)[C@H]([C@H](OC(=O)c3ccccc3)[C@]3(O)C[C@H](OC(=O)[C@H](O)[C@@H](NC(=O)c4ccccc4)c4ccccc4)C(C)=C1C3(C)C)[C@]1(OC(C)=O)CO[C@@H]1C[C@@H]2O", "classAssignment": "label 1"}

Given `Nc1ccc(-c2ccc3ncc4ccc(=O)n(-c5cccc(C(F)(F)F)c5)c4c3c2)cn1` , state whether its normalized growth rate inhibition value is at least 1.
label 0

Given `CC[C@@H]1C(=O)N(C)c2cnc(Nc3ccc(C(=O)N[C@H]4CC[C@H](N5CCN(CC6CC6)CC5)CC4)cc3OC)nc2N1C(C)C` , state whether its normalized growth rate inhibition value is at least 1.
label 1

----------
System: U2OS
Experiment: fractional viability (live cells / total cells); higher = less cell death
Details: 0.100289 µM; 72 h
endpointLabel: fractional viability
Lab note: write the figure by itself, no unit.

Field: example entries. Status: answers known.
{"compound": "COc1cc([C@@H]2c3cc4c(cc3[C@@H](O[C@@H]3O[C@@H]5CO[C@@H](C)O[C@H]5[C@H](O)[C@H]3O)[C@H]3COC(=O)[C@H]23)OCO4)cc(OC)c1O [Etoposide]", "fractional viability": 0.975}
{"compound": "CC(C)[C@@H]1NC(=O)[C@H](C)OC(=O)[C@@H](C(C)C)NC(=O)[C@@H](C(C)C)OC(=O)[C@H](C(C)C)NC(=O)[C@H](C)OC(=O)[C@@H](C(C)C)NC(=O)[C@@H](C(C)C)OC(=O)[C@H](C(C)C)NC(=O)[C@H](C)OC(=O)[C@@H](C(C)C)NC(=O)[C@@H](C(C)C)OC1=O", "fractional viability": 0.685}
{"compound": "Cc1nc(Nc2ncc(C(=O)Nc3c(C)cccc3Cl)s2)cc(N2CCN(CCO)CC2)n1", "fractional viability": 0.976}
{"compound": "O=C(c1cc(Cc2n[nH]c(=O)c3ccccc23)ccc1F)N1CCN(C(=O)C2CC2)CC1", "fractional viability": 0.99}
{"compound": "COc1cc2nccc(Oc3ccc(NC(=O)C4(C(=O)Nc5ccc(F)cc5)CC4)cc3)c2cc1OC [Cabozantinib]", "fractional viability": 0.979}

fractional viability value, target or system U2OS, for `CC[C@@]1(O)C(=O)OCc2c1cc1n(c2=O)Cc2cc3c(CN(C)C)c(O)ccc3nc2-1` : 0.963

fractional viability value, target or system U2OS, for `CC(C)NC[C@@H](C(=O)N1CCN(c2ncnc3c2[C@H](C)C[C@H]3O)CC1)c1ccc(Cl)cc1` : 0.986

fractional viability value, target or system U2OS, for `Cc1nc(NC(=O)N2CCC[C@H]2C(N)=O)sc1-c1ccnc(C(C)(C)C(F)(F)F)c1` : 0.982

fractional viability value, target or system U2OS, for `Cc1nn(C)c(COc2ccc(N3CCN(S(=O)(=O)N(C)C)CC3)cc2)c1-c1cccc2c(CCCOc3cccc4ccccc34)c(C(=O)O)n(CCN3CCOCC3)c12` : 0.99

fractional viability value, target or system U2OS, for `COc1cccc2c1C(=O)c1c(O)c3c(c(O)c1C2=O)C[C@@](O)(C(=O)CO)C[C@@H]3O[C@H]1C[C@H](N)[C@H](O)[C@H](C)O1` : 0.967

fractional viability value, target or system U2OS, for `CCc1cncnc1N1CCN(Cc2nc3ccc(C(F)(F)F)cc3[nH]2)CC1` : 0.988

fractional viability value, target or system U2OS, for `COc1cc2c(Oc3ccc4[nH]c(C)cc4c3F)ncnc2cc1OCCCN1CCCC1` : 0.986

fractional viability value, target or system U2OS, for `Nc1cc(C(F)(F)F)c(-c2cc(N3CCOCC3)nc(N3CCOCC3)n2)cn1` : 0.985

fractional viability value, target or system U2OS, for `CS(=O)(=O)N1CCN(Cc2cc3nc(-c4cccc5[nH]ncc45)nc(N4CCOCC4)c3s2)CC1` : 0.975

----------
System: U2OS
Test: fractional viability (live cells / total cells); higher = less cell death
Conditions: 1 µM; 72 h
endpointLabel: fractional viability
Lab note: write the figure by itself, no unit.

Field: example entries. Status: answers known.
{"molecule": "CCOc1cc2ncc(C#N)c(Nc3ccc(OCc4ccccn4)c(Cl)c3)c2cc1NC(=O)/C=C/CN(C)C [Neratinib]", "measured": 0.879}
{"molecule": "O=C(/C=C/c1cccc(S(=O)(=O)Nc2ccccc2)c1)NO [Belinostat]", "measured": 0.466}
{"molecule": "O=C(O)CCCc1ccc(N(CCCl)CCCl)cc1 [Chlorambucil]", "measured": 0.979}
{"molecule": "Cc1ccc(Nc2nccc(N(C)c3ccc4c(C)n(C)nc4c3)n2)cc1S(N)(=O)=O [Pazopanib]", "measured": 0.979}

Continue with the next molecule.
Noted for CC(=O)O[C@H]1C(=O)[C@@]2(C)[C@H]([C@H](OC(=O)c3ccccc3)[C@]3(O)C[C@H](OC(=O)[C@H](O)[C@@H](NC(=O)c4ccccc4)c4ccccc4)C(C)=C1C3(C)C)[C@]1(OC(C)=O)CO[C@@H]1C[C@@H]2O [Taxol] : its fractional viability reads 0.44
